molecular target: Poly [ADP-ribose] polymerase 1 (Homo sapiens); experiment: Inhibition of human recombinant PARP1 in presence of NAD+ by ELISA
Sequence (P09874 whole entry): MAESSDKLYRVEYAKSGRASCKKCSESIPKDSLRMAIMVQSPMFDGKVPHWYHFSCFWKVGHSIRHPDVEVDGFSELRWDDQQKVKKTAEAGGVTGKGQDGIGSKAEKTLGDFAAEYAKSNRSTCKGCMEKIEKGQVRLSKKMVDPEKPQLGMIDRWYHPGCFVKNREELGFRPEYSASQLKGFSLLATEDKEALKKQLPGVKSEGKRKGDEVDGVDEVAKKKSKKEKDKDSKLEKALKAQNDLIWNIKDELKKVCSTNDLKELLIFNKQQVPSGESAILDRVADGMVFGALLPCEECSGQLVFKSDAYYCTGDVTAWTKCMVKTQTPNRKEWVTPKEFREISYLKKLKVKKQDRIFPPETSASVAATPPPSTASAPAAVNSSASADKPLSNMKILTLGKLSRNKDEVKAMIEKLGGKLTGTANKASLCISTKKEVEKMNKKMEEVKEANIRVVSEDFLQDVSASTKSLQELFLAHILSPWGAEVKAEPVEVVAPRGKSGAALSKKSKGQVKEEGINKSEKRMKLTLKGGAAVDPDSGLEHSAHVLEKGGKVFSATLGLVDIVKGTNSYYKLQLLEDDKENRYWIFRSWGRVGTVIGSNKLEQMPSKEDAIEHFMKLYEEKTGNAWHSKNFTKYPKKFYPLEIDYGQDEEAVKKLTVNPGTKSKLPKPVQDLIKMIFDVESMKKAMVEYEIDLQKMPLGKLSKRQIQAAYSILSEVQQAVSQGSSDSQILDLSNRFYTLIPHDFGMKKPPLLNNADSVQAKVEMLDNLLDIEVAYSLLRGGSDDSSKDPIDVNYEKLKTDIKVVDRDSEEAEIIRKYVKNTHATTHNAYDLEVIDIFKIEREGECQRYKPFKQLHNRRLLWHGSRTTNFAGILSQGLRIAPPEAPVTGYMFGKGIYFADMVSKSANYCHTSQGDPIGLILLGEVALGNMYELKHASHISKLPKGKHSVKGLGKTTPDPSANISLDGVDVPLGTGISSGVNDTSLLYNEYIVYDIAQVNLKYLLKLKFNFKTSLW
parameter: IC50 (nM)

# annotated cases, reported IC50 shown
C=C1C(=O)OC2C[C@@]3(C)CCC=C(COC(=O)CC4CCCN(C(=O)c5cc(Cc6n[nH]c(=O)c7ccccc67)ccc5F)C4)C3=CC12 (stereo not given in full)    65.2
C=C1C(=O)OC2C[C@@]3(C)CCC=C(COC(=O)CC4CCN(C(=O)c5cc(Cc6n[nH]c(=O)c7ccccc67)ccc5F)CC4)C3=CC12 (stereo not given in full)    69.9
C=C1C(=O)OC2C[C@@]3(C)CCC=C(COC(=O)CCCC4CCN(C(=O)c5cc(Cc6n[nH]c(=O)c7ccccc67)ccc5F)CC4)C3=CC12 (stereo not given in full)    129

(A) C[C@H]1CCC[C@]2(C)CC3OC(=O)C(CN4CCN(C(=O)c5cc(Cc6n[nH]c(=O)c7ccccc67)ccc5F)CC4)C3C=C12 (stereo not given in full)
(B) C=C1C(=O)OC2C[C@@]3(C)CCC=C(COC(=O)CCC4CCN(C(=O)c5cc(Cc6n[nH]c(=O)c7ccccc67)ccc5F)CC4)C3=CC12 (stereo not given in full)
[Q] Identify the entry with the larger IC50. Options: A and B Your choice should be expressed through its label.
[A] A
(A: 136 nM, B: 79.2 nM)
